Record form. Attribute: inhibition at 0.01 µM. Fill in for each entry.
- measurementTarget: COX-2 (Mus musculus)
- Construct: host or cells: RAW 264.7 cells, aspirin-pretreated, then induced with interferon gamma and LPS
- Sequence (Q05769 18-604): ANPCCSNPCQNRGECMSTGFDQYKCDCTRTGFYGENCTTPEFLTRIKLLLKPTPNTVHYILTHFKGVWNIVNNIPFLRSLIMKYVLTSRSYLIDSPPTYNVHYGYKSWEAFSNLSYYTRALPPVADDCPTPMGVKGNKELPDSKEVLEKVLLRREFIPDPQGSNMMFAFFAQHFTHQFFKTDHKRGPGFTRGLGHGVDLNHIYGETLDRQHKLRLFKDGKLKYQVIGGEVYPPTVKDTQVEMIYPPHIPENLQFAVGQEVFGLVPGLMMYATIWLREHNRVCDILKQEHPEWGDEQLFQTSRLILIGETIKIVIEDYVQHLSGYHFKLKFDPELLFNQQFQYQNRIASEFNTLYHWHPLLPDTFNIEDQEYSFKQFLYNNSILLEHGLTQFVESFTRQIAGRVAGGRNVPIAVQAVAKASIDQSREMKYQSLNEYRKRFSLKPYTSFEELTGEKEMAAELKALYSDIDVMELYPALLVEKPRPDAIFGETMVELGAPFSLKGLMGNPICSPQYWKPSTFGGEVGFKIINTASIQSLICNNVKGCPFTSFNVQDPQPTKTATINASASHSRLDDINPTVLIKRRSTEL
- test: Assay for the COX-2 inhibitory activity using RAW 264.7 cell line (PGE2 inhibition)
- Assay type: cell-based
- settings: RAW264.7, 10 nM test compound, RAW 264.7 cells, interferon γ and LPS, 18 hours, read-out: Cyclooxygenase (COX) Inhibition (%) COX-2 (10 nM)
Kindly provide the numeric value in % only, without the unit symbol.

inhibition at 0.01 µM for `CCOc1nc(-c2ccccc2)n(-c2ccc(S(N)(=O)=O)cc2)n1` is 16.4

inhibition at 0.01 µM for `COc1nc(-c2ccc(OC)c(F)c2)n(-c2ccc(S(N)(=O)=O)cc2)n1` is 10.5

inhibition at 0.01 µM for `CC(C)Oc1nc(-c2ccc(F)cc2)n(-c2ccc(S(N)(=O)=O)cc2)n1` is 9.8

inhibition at 0.01 µM for `COc1ccc(-c2nc(OC(C)C)nn2-c2ccc(S(N)(=O)=O)cc2)cc1` is 12.2

inhibition at 0.01 µM for `COc1nc(-c2ccccc2)n(-c2ccc(S(N)(=O)=O)cc2)n1` is 27.8

inhibition at 0.01 µM for `CSc1nc(-c2ccccc2)n(-c2ccc(S(N)(=O)=O)cc2)n1` is 11.1

inhibition at 0.01 µM for `COc1ccc(-c2nc(OC3CCCC3)nn2-c2ccc(S(N)(=O)=O)cc2)cc1` is 22.3

inhibition at 0.01 µM for `NS(=O)(=O)c1ccc(-n2nc(OC3CCCCC3)nc2-c2ccc(F)cc2)cc1` is 16.2

inhibition at 0.01 µM for `CCOc1nc(-c2ccc(OC)cc2)n(-c2ccc(S(N)(=O)=O)cc2)n1` is 13.2

inhibition at 0.01 µM for `N#CCOc1nc(-c2ccc(F)cc2)n(-c2ccc(S(N)(=O)=O)cc2)n1` is 13.3

inhibition at 0.01 µM for `NS(=O)(=O)c1ccc(-n2nc(OC3CC3)nc2-c2ccccc2)cc1` is 30.4

inhibition at 0.01 µM for `CC(C)Sc1nc(-c2ccccc2)n(-c2ccc(S(N)(=O)=O)cc2)n1` is 24.5
